Provide the recorded koff for the entries that follow.
- Study System: recombinant human IL-6 (human, UniProt P05231 30-212)
- Sequence (P05231 30-212 limits assumed): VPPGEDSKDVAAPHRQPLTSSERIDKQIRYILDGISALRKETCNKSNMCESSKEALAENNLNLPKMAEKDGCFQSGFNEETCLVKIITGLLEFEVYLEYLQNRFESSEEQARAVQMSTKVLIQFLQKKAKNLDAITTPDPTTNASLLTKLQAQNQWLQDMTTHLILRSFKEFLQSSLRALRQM
- Assay Comment: SPR, IL-6 on CM5 chip, Fab lysate, 25 C
Write the answer as a number in s⁻¹, unit excluded.

Exam item: GET /values?readout=koff&item= anti-IL-6 Fab, parental molecule (Fab, V domains shown, Fab expressed in E. coli TG1, tested as filtered lysate; also called wild-type; parent molecule) VH: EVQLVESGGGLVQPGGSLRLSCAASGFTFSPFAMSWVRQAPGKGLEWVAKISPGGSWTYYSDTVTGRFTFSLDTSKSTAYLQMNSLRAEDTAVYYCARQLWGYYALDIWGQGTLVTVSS VL: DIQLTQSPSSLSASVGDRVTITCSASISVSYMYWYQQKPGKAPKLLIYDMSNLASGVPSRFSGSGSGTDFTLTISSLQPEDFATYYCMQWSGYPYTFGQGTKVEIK
Marked response: 0.00494

Exam item: Given anti-IL-6 Fab, heavy chain T28Y (Fab, V domains shown, see m39) VH: EVQLVESGGGLVQPGGSLRLSCAASGFYFSPFAMSWVRQAPGKGLEWVAKISPGGSWTYYSDTVTGRFTFSLDTSKSTAYLQMNSLRAEDTAVYYCARQLWGYYALDIWGQGTLVTVSS VL: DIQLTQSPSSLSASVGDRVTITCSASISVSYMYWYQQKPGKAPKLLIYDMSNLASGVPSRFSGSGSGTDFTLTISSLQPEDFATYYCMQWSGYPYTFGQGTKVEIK , state its recorded koff.
Marked response: 0.0039

Exam item: What koff value was documented for this binder, anti-IL-6 Fab, light chain S91K (Fab, V domains shown, see m39) VH: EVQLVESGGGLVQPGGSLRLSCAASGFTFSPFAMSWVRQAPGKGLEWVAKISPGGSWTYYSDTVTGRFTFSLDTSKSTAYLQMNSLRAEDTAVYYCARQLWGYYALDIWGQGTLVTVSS VL: DIQLTQSPSSLSASVGDRVTITCSASISVSYMYWYQQKPGKAPKLLIYDMSNLASGVPSRFSGSGSGTDFTLTISSLQPEDFATYYCMQWKGYPYTFGQGTKVEIK ?
Marked response: 0.00549

Exam item: If you can, please state the reported koff value of anti-IL-6 Fab, heavy chain T65D (Fab, V domains shown, see m39) VH: EVQLVESGGGLVQPGGSLRLSCAASGFTFSPFAMSWVRQAPGKGLEWVAKISPGGSWTYYSDTVDGRFTFSLDTSKSTAYLQMNSLRAEDTAVYYCARQLWGYYALDIWGQGTLVTVSS VL: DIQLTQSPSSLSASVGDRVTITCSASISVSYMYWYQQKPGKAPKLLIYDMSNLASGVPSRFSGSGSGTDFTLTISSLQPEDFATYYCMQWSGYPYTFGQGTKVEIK .
Marked response: 0.00614

Exam item: Value lookup for koff; key = anti-IL-6 Fab, light chain S55I (Fab, V domains shown, see m39) VH: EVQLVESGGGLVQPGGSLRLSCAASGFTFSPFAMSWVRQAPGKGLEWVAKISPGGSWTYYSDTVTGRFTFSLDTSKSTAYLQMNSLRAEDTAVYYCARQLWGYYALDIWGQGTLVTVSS VL: DIQLTQSPSSLSASVGDRVTITCSASISVSYMYWYQQKPGKAPKLLIYDMSNLAIGVPSRFSGSGSGTDFTLTISSLQPEDFATYYCMQWSGYPYTFGQGTKVEIK
Marked response: 0.00505
